# ASSAY_OVERVIEW: Intrinsic clearance in cynomolgus monkey cryopreserved hepatocytes at 1 uM
# Assay type: ADME, cell-based, Macaca fascicularis, Hepatocyte
PARAMETER: CLint at 1 µM

Input: Please give the documented CLint at 1 µM of Cc1csc(NC(=O)c2cc(F)cc(Oc3cncnc3)c2)n1
Output: 194 mL/min/kg

---

# Tested on: Plasma
# ASSAY_OVERVIEW: Retention time in Sprague-Dawley rat plasma treated with 56.6 mg/kg, ip VU0409106 single dose
# Format: ADME, organism-based
# Set-up: dose 56.6 mg/kg, route intraperitoneal
# CONDITION: in vivo
Would you kindly list Retention_time for each of these compounds?
Answer in min, number only, no unit symbol.

Input: Please give the documented Retention_time of Cc1csc(NC(=O)c2cc(F)cc(Oc3c[nH]c(=O)[nH]c3=O)c2)n1
Output: 12.3

Input: Please give the documented Retention_time of Cc1csc(NC(=O)c2cc(O)cc(Oc3c[nH]c(=O)[nH]c3=O)c2)n1
Output: 13.4

Input: Please give the documented Retention_time of Cc1csc(NC(=O)c2cc(F)cc(Oc3cncnc3)c2)n1
Output: 14.5

Input: Please give the documented Retention_time of Cc1csc(NC(=O)c2cc(F)cc(Oc3cnc[nH]c3=O)c2)n1
Output: 12.55

---

# ASSAY_OVERVIEW: Plasma clearance in cynomolgus monkey at 1 mg/kg, iv administered as single dose
# Type: ADME, organism-based, Macaca fascicularis
# Set-up: dose 1 mg/kg, route intravenous
PARAMETER: clearance (mL/min/kg)
Answer in mL/min/kg, number only, no unit symbol.

Input: Please give the documented clearance of Cc1csc(NC(=O)c2cc(F)cc(Oc3cncnc3)c2)n1
Output: 24

---

# ASSAY_OVERVIEW: Intrinsic clearance in cynomolgus monkey hepatic S9 fraction at 1 uM in presence of NADPH
# Format: ADME, tissue-based, Macaca fascicularis, Liver
PARAMETER: CLint at 1 µM (mL/min/kg)
Answer in mL/min/kg, number only, no unit symbol.

Input: Please give the documented CLint at 1 µM of Cc1csc(NC(=O)c2cc(F)cc(Oc3cncnc3)c2)n1
Output: 37

---

# ASSAY_OVERVIEW: Effective half life in Sprague-Dawley rat at 1 mg/kg, iv administered as single dose
# Assay type: ADME, organism-based
# Design: dose 1 mg/kg, route intravenous
# CONDITION: in vivo
PARAMETER: half-life

Input: Please give the documented half-life of Cc1csc(NC(=O)c2cc(F)cc(Oc3cncnc3)c2)n1
Output: < 15 min

---

# ASSAY_OVERVIEW: Intrinsic clearance in Sprague-Dawley rat hepatic S9 fraction at 1 uM in presence of NADPH
# Format: ADME, tissue-based, Liver
PARAMETER: CLint at 1 µM
Please state the number and follow it with the unit.

Input: Please give the documented CLint at 1 µM of Cc1csc(NC(=O)c2cc(F)cc(Oc3cncnc3)c2)n1
Output: 54 mL/min/kg

---

# ASSAY_OVERVIEW: Volume of distribution at steady state in Sprague-Dawley rat at 1 mg/kg, iv administered as single dose
# Format: ADME, organism-based
# Set-up: dose 1 mg/kg, route intravenous
# CONDITION: in vivo, read-out: Vdss
PARAMETER: Vd (L/kg)
Answer in L/kg, number only, no unit symbol.

Input: Please give the documented Vd of Cc1csc(NC(=O)c2cc(F)cc(Oc3cncnc3)c2)n1
Output: 0.81
